- System: Escherichia coli
- test_details: Antibacterial activity against Escherichia coli W3110
- Assay type: functional
measure: inhibition zone (IZ)

Give a short answer stating reported inhibition zone (IZ) for O=P(O)(O)C(O)(Cc1cnc2ccccn12)P(=O)(O)O [MINODRONIC ACID] .
10 mm

Give a short answer stating reported inhibition zone (IZ) for O=P(O)(O)C(Nc1c(F)c(F)c(F)c(F)c1F)P(=O)(O)O .
0 mm

Give a short answer stating reported inhibition zone (IZ) for O=P(O)(O)C(Nc1cc2ccccc2cn1)P(=O)(O)O .
0 mm

Give a short answer stating reported inhibition zone (IZ) for CCCNC(P(=O)(O)O)P(=O)(O)O [(PROPYLAMINO)METHYLENEDIPHOSPHONIC ACID] .
0 mm

Give a short answer stating reported inhibition zone (IZ) for CCCCCCC(O)(P(=O)(O)O)P(=O)(O)O .
0 mm

Give a short answer stating reported inhibition zone (IZ) for O=P(O)(O)C(NC1CCCCC1)P(=O)(O)O .
7 mm

Give a short answer stating reported inhibition zone (IZ) for O=P(O)(O)C(N1CCCCCCC1)P(=O)(O)O .
0 mm

Give a short answer stating reported inhibition zone (IZ) for O=P(O)(O)C(Nc1ccc(Cl)cc1Cl)P(=O)(O)O .
0 mm

Give a short answer stating reported inhibition zone (IZ) for O=P(O)(O)C(=Nc1cccnc1)P(=O)(O)O .
0 mm

Give a short answer stating reported inhibition zone (IZ) for CCCCCCCCNC(P(=O)(O)O)P(=O)(O)O [(OCTYLAMINO)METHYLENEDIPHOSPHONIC ACID] .
0 mm

Give a short answer stating reported inhibition zone (IZ) for O=P(O)(O)Cc1cccc(CP(=O)(O)O)c1 .
0 mm

----------
- System: Escherichia coli
- test_details: Antibacterial activity against Escherichia coli W3110
- Type: functional
For each record, write down the corresponding inhibition zone (IZ).
Dear colleague, please return just the value in mm, with no unit written.

Return reported inhibition zone (IZ) for target or system Escherichia coli, item CCCCC(O)(P(=O)(O)O)P(=O)(O)O .
0

Return reported inhibition zone (IZ) for target or system Escherichia coli, item O=P(O)(O)C(Nc1ncccc1COc1ccccc1)P(=O)(O)O .
0

Return reported inhibition zone (IZ) for target or system Escherichia coli, item O=P(O)(O)C(NC1CCCCCCC1)P(=O)(O)O .
7

Return reported inhibition zone (IZ) for target or system Escherichia coli, item O=P(O)(O)C(O)(Cc1cn2ccccc2n1)P(=O)(O)O .
0

Return reported inhibition zone (IZ) for target or system Escherichia coli, item Cc1ccnc(N(Cc2ccccc2)C(P(=O)(O)O)P(=O)(O)O)c1 .
0

Return reported inhibition zone (IZ) for target or system Escherichia coli, item CN[C@@H]1[C@H](O[C@H]2[C@H](O[C@H]3[C@H](O)[C@@H](O)[C@H](N=C(N)N)[C@@H](O)[C@@H]3N=C(N)N)O[C@@H](C)[C@]2(O)C=O)O[C@@H](CO)[C@H](O)[C@H]1O [STREPTOMYCIN] .
15

Return reported inhibition zone (IZ) for target or system Escherichia coli, item CCCC(O)(P(=O)(O)O)P(=O)(O)O .
0

Return reported inhibition zone (IZ) for target or system Escherichia coli, item CCCCCCCCCNC(P(=O)(O)O)P(=O)(O)O [(NONYLAMINO)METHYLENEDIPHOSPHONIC ACID] .
0

Return reported inhibition zone (IZ) for target or system Escherichia coli, item O=CN(O)CCCP(=O)(O)O [FOSMIDOMYCIN] .
20

Return reported inhibition zone (IZ) for target or system Escherichia coli, item O=P(O)(O)C(Nc1cccnc1)P(=O)(O)O .
0

Return reported inhibition zone (IZ) for target or system Escherichia coli, item O=P(O)(O)C(NC1CCCC1)P(=O)(O)O .
0

Return reported inhibition zone (IZ) for target or system Escherichia coli, item O=P(O)(O)C(Sc1ccccn1)P(=O)(O)O .
0

Return reported inhibition zone (IZ) for target or system Escherichia coli, item O=P(O)(O)C(O)(Cc1c[nH]cn1)P(=O)(O)O .
0

Return reported inhibition zone (IZ) for target or system Escherichia coli, item CCCCCCCCCCCC(O)(P(=O)(O)O)P(=O)(O)O .
0

Return reported inhibition zone (IZ) for target or system Escherichia coli, item CC(C)(C)c1cc(NC(P(=O)(O)O)P(=O)(O)O)cc(C(C)(C)C)c1 .
0

Return reported inhibition zone (IZ) for target or system Escherichia coli, item CCC1CCCCN1C(P(=O)(O)O)P(=O)(O)O (stereo not drawn) .
0

Return reported inhibition zone (IZ) for target or system Escherichia coli, item O=P(O)(O)C(Nc1cccc(-c2ccccc2)c1)P(=O)(O)O .
8

Return reported inhibition zone (IZ) for target or system Escherichia coli, item CCCCCN(C)CCC(O)(P(=O)(O)O)P(=O)(O)O [IBANDRONIC ACID] .
0

Return reported inhibition zone (IZ) for target or system Escherichia coli, item CCCCCCCCCCCCCC(O)(P(=O)(O)O)P(=O)(O)O .
0

Return reported inhibition zone (IZ) for target or system Escherichia coli, item O=P(O)(O)C(NC1CCC1)P(=O)(O)O .
0

Return reported inhibition zone (IZ) for target or system Escherichia coli, item O=P(O)(O)C(CNc1cccnc1)P(=O)(O)O .
0

Return reported inhibition zone (IZ) for target or system Escherichia coli, item CCCCOc1ccc(NC(P(=O)(O)O)P(=O)(O)O)cc1 .
0

Return reported inhibition zone (IZ) for target or system Escherichia coli, item Cc1nc(NC(P(=O)(O)O)P(=O)(O)O)c(Br)cc1Br .
0
